# EXPERIMENT SUMMARY: protease stability score; higher = more stable; yeast display proteolysis, trypsin and chymotrypsin;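 further: relative to predicted unfolded state with 0 unfolded-like and 1 meaning tenfold more protease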
MEASURE: protease stability score
Answer as a number with no unit attached.

Solved cases below.
DEEEEKSKRMLEIIIHAVMTGDFQHLLDNMDPHVKLDIDGVDLHGRESAEEFVKKVKNLTLHDWKLDHWHIQGDKVTMHVTIDGLYNGKKERTRVIIIALKINGQWHIKSMKID: 1.9
DEVEENAIRIAEDMLNNVLTGDEHLLRQLLDPHVRFILIVGDKTYTWHGREDFLEWLRKRLKQIDHEHIIIRDIKVVGDKAHIDGELHINVNGRTEDTRVHWDILVINGRIHKIRIIIH: 1.38

For the next question, use this sequence.
Note to self: protease stability score recorded for "DENRKFARVMTELILHSWYTGDWELDVKLADPNVLNDFNGKEIHGMENVSRQFIEMRIDDVRIRDLRIEVYGEKLISKIDGERNGHFDGRTVDTRMHLELIMEKINGRWIIREIRIEVK" was 2.59
